Each recorded value in this set is attributed to ChEMBL document CHEMBL4251567.

System: UniProt:O15379
Sequence (O15379 whole entry): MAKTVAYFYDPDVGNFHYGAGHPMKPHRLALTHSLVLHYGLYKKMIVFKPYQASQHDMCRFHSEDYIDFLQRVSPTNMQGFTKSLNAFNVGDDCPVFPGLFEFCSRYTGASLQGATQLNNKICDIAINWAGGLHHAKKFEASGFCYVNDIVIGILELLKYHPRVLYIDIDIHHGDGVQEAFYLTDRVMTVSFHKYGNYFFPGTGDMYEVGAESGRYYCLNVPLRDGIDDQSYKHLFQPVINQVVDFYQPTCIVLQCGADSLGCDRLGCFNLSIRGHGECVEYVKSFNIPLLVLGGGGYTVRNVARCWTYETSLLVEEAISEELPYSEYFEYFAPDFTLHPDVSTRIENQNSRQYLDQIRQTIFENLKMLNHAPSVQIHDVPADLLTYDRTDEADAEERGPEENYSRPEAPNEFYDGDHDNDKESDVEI
Assay Summary: Inhibition of HDAC3 in human HeLa-S3 cell lysates assessed as remaining activity at 1 x 10^-5 M preincubated for 15 mins followed by HDAC-Glo substrate addition measured after 30 to 40 mins by […] relative to control
Endpoint: Activity (%)
Please state the figure in %; there is no need to write the unit.

Reference set (3 entries):
- O=C(CC[C@H](CCCC(=O)Nc1ccccc1)Cc1ccccc1)NO: 76
- O=C(CC[C@@H](CCCC(=O)Nc1ccccc1)Cc1ccccc1)NO: 77
- O=C(CCC(CCCC(=O)Nc1ccccc1)Cc1ccccc1)NO (racemic): 87

Now examine the next entry.
response.value for CCCCCCC(CCCC(=O)Nc1ccccc1)CCC(=O)NO (centres undefined) (field: Activity) = 88
